ASSAYED TARGET: SRPK1 (Homo sapiens, UniProt Q96SB4)
Sequence (Q96SB4 whole entry, species assumed): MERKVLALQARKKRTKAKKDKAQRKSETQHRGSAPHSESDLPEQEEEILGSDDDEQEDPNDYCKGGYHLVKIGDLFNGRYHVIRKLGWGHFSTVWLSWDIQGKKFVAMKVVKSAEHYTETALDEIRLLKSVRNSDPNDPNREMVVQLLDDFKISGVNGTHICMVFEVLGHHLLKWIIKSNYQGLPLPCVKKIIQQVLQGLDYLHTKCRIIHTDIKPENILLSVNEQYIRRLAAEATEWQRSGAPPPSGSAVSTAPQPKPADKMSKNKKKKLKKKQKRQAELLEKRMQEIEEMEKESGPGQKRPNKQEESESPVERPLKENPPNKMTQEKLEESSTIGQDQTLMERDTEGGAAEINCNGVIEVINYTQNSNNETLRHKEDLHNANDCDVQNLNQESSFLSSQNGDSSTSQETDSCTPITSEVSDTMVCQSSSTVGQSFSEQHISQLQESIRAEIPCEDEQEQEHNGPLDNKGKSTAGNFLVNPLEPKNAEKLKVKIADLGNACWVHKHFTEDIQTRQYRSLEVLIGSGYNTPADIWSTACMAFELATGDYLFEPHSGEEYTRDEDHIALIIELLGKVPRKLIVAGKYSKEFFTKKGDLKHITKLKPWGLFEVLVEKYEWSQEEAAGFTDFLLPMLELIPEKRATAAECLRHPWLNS
ASSAY SUMMARY: In vitro SRPK1 assay (Kinase-Glo)
Assay type: biochemical
I'd appreciate it if you could supply log10 IC50 values for the items below.
A difference of one corresponds to tenfold IC50; all values are log10 with IC50 in nM.

log10 IC50 reading for CC1(C)CCN(c2ccc(C3CC3)cc2NC(=O)c2ccc(C3CCOCC3)o2)CC1 : 0.75

In plain terms, CC1(C(=O)N2CCCCC2)CCN(c2ccc(C(F)(F)F)cc2NC(=O)c2ccc(C3CCOCC3)o2)CC1 has a documented log10 IC50 of 1.15

For CC1(O)CCCN(c2ccc(C3CC3)cc2NC(=O)c2ccc(C3CCOCC3)o2)CC1 (racemic) the compound record lists log10 IC50 as 1.11

Sure, the documented log10 IC50 for O=C(Nc1cc(Cl)ccc1N1CCC(O)CC1)c1ccc(C2CCOCC2)o1 is 0.18

Noted for CC1(O)CCCN(c2ccc(Cl)cc2NC(=O)c2ccc(C3CCOCC3)o2)CC1 (racemic) : its log10 IC50 reads 0.48

# log10 IC50 of CC1CCN(c2ccc(C(F)(F)F)cc2NC(=O)c2ccc(-c3ccncc3)o2)CC1 = 2.63

The recorded log10 IC50 for entry O=C(Nc1cc(C(F)(F)F)ccc1N1CCC(O)CC1)c1ccc(-c2ccncc2)o1 equals -0.10

The compound listed as Cc1ccc(N2CCC(C)(O)CC2)c(NC(=O)c2ccc(-c3ccncc3)o2)c1 shows log10 IC50 equal to 1.16

O=C(Nc1cc(C(F)(F)F)ccc1N1CCCC(O)CC1)c1ccc(C2CCOCC2)o1 (racemic) has a reported log10 IC50 of 1.02

Reported log10 IC50 ( Cc1ccc(N2CCC(C)(O)C2)c(NC(=O)c2ccc(C3CCOCC3)o2)c1 (racemic) ) = 2.31

The reported value for CC1(N)CCN(c2ccc(C(F)(F)F)cc2NC(=O)c2ccc(C3CCOCC3)o2)CC1 in terms of log10 IC50 is 1.18
